# Target Or System: T1, rHuman EGF R/Fc Chimera, CF (R&D Systems Cat#344-ER) (human, UniProt P00533 25-645)
# T1 construct: Bought recombinant Fc chimera; also called epidermal growth factor receptor; Fc part of the bought chimera not given
# Experiment: ECL multispot (MSD), antigen spotted, Fab in solution;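 also: purified Fab incubated 1 h at 20 °C on antigen-spotted wells, bound Fab detected via TAG detection antibody, ECL compared with each well's blank, ratio of 4 or above scored as hit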
Test Readout: ECL signal
Write the number on its own, no unit after it.

Worked cases, ECL signal given:
Fab VH1-46_IGHD6-6*01_IGHJ1*01 S102A/S103P/S104F/H111F (APFF) & L6_IGKJ1*01 S28R (Fab, V domains shown, Fab; VH cloned into Plasmid A (CH1, His6 and Flag tags) and VL into Plasmid C (kappa CL); also called APFF / S28R) VH: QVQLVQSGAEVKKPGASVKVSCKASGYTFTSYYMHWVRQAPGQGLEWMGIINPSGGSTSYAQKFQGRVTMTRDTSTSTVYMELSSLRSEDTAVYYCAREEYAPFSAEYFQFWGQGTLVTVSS VL: EIVLTQSPATLSLSPGERATLSCRASQRVSSYLAWYQQKPGQAPRLLIYDASNRATGIPARFSGSGSGTDFTLTISSLEPEDFAVYYCQQRSNWPPWTFGQGTKVEIKR; 403
Fab VH1-46_IGHD6-6*01_IGHJ1*01 S102A/S103P/S104F/H111F (APFF) & L6_IGKJ1*01 S28M (Fab, V domains shown, Fab; VH cloned into Plasmid A (CH1, His6 and Flag tags) and VL into Plasmid C (kappa CL); also called APFF / S28M) VH: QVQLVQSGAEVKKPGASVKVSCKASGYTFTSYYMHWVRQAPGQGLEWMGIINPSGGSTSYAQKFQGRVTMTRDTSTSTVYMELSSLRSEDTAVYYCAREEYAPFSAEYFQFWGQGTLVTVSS VL: EIVLTQSPATLSLSPGERATLSCRASQMVSSYLAWYQQKPGQAPRLLIYDASNRATGIPARFSGSGSGTDFTLTISSLEPEDFAVYYCQQRSNWPPWTFGQGTKVEIKR; 320

Here is the next item to consider.
Item under review: Fab VH1-46_IGHD6-6*01_IGHJ1*01 S102A/S103P/S104F/H111F (APFF) & L6_IGKJ1*01 S28E (Fab, V domains shown, Fab; VH cloned into Plasmid A (CH1, His6 and Flag tags) and VL into Plasmid C (kappa CL); also called APFF / S28E) VH: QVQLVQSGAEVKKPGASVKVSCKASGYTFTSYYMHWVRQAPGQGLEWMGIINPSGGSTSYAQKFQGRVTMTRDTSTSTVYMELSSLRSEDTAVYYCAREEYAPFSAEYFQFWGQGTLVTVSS VL: EIVLTQSPATLSLSPGERATLSCRASQEVSSYLAWYQQKPGQAPRLLIYDASNRATGIPARFSGSGSGTDFTLTISSLEPEDFAVYYCQQRSNWPPWTFGQGTKVEIKR . Reported ECL signal?
396
